Entry source: patent US20180273538A1

Target: phospho-Ser520-DYRK1A (Homo sapiens, UniProt Q13627)
Construct: full-length, wild-type human DYRK1A (NM_001396) with an HA tag; expressed in transfected cells; host or cells: human U2-OS osteosarcoma cells, pcDNA3.1 plasmid
Test: Cellular DYRK1A autophosphorylation assay in U2-OS cells
Type: cell-based
Settings: 5 hours exposure, read-out: IC50 (μM) P-Ser520-Dyrk1A-Cell assay
Assay metric: IC50 (µM)

Worked examples follow.
- Chemical smiles: "CCOc1ccccc1CNc1nc(C)nc2[nH]cc(-c3ccnc(N)c3)c12"
  IC50 (µM): 0.105
- Chemical smiles: "Cc1nc(N2CCc3ccccc3C2)c2c(-c3cc(N)nc(N)c3)c[nH]c2n1"
  IC50 (µM): 0.006
- Chemical smiles: "Cc1nc(-c2ccc3c(c2)OCO3)c2c(-c3cc(N)nc(N)c3)c[nH]c2n1"
  IC50 (µM): 0.048

(P) Nc1cc(-c2c[nH]c3nc(C#CC4CC4)cc(-c4ccc5c(c4)OCO5)c23)cc(N)n1
(Q) Nc1cc(-c2c[nH]c3nc(C#CC4CC4)cc(-c4ccc5c(c4)OCCO5)c23)ccn1
Asked: # argmax over IC50 for candidates P and Q Respond using the label that marks the chosen record.
Given back: Q
(Q: 0.103 µM, P: 0.0289 µM)

(P) Cc1nc(NCc2c(C)cccc2F)c2c(-c3ccnc(N)c3)c[nH]c2n1
(Q) Cc1cc(NCc2c(F)cccc2F)c2c(-c3ccnc(N)c3)c[nH]c2n1
Asked: # min-compare on IC50 between P and Q Respond using the label that marks the chosen record.
Given back: P
(P: 0.027 µM, Q: 0.057 µM)

(P) Cc1nc(NCc2c(C)cccc2Cl)c2c(-c3ccnc(N)c3)c[nH]c2n1
(Q) COc1cc(F)ccc1CNc1nc(C)nc2[nH]cc(-c3ccnc(N)c3)c12
Asked: # argmax over IC50 for candidates P and Q Respond using the label that marks the chosen record.
Given back: P
(P: 0.0337 µM, Q: 0.0097 µM)

(P) Cc1nc(NCc2ccccc2C)c2c(-c3ccnc(N)c3)c[nH]c2n1
(Q) Cc1nc(NCc2ccc(F)cc2F)c2c(-c3ccnc(N)c3)c[nH]c2n1
Asked: # argmax over IC50 for candidates P and Q Respond using the label that marks the chosen record.
Given back: Q
(Q: 0.0408 µM, P: 0.0117 µM)

(A) Cc1nc(-c2cc3ccccc3[nH]2)c2c(-c3ccnc(N)c3)c[nH]c2n1
(B) Cc1cc(-c2ccc3c(c2)OCO3)c2c(-c3ccnc(N)c3)c[nH]c2n1
Asked: # argmax over IC50 for candidates A and B Respond using the label that marks the chosen record.
Given back: A

(a) Cc1nc(NCc2cccc(Cl)c2Cl)c2c(-c3ccnc(N)c3)c[nH]c2n1
(b) Cc1nc(-c2cc3ccccc3n2C)c2c(-c3ccnc(N)c3)c[nH]c2n1
(c) Cc1cc(-c2c[nH]c3nc(C)nc(NCc4ccsc4)c23)ccn1
(d) Cc1nc(NCc2ccccn2)c2c(-c3ccnc(N)c3)c[nH]c2n1
(e) Cc1nc(-c2cc3cccc(Cl)c3s2)c2c(-c3ccnc(N)c3)c[nH]c2n1
Asked: Rank ascending by IC50. Would you mind listing the labels in the order asked for?
Given back: e, b, a, d, c

(A) Cc1nc(-c2cccc(OC(F)(F)F)c2)c2c(-c3ccnc(N)c3)c[nH]c2n1
(B) Cc1nc(NCc2ccc(F)cc2)c2c(-c3ccnc(N)c3)c[nH]c2n1
(C) Cc1nc(-c2ccc3c(c2)OC(F)(F)O3)c2c(-c3ccnc(N)c3)c[nH]c2n1
Asked: Arrange by IC50, high to low. Would you mind listing the labels in the order asked for?
Given back: B, A, C
